Source listed as patent US20230094952A1.

Test system: mouse long-term hematopoietic stem cells
Test: Reproducibility and concentration dependence test: 1-week culture of sorted Hoxb5-tri-mCherry mouse long-term hematopoietic stem cells, flow cytometry
Format: cell-based
Details: Table 4; compound 10 μM; day 7 of culture; n=2
measured-quantity: mCherry-positive rate

molecule	measured-quantity	result
CCO[C@H]1O[C@@H]2O[C@@]3(C)CC[C@H]4[C@H](C)CC[C@@H]([C@H]1C)[C@@]24OO3 [Example 1-31, artemotil, reference compound]	mCherry-positive rate	50.0%
C[C@H]1[C@@H](OCc2ccccc2)O[C@@H]2O[C@@]3(C)CC[C@H]4[C@H](C)CC[C@@H]1[C@@]24OO3 [Example 1-24]	mCherry-positive rate	0.0%
COCCO[C@H]1O[C@@H]2O[C@@]3(C)CC[C@H]4[C@H](C)CC[C@@H]([C@H]1C)[C@@]24OO3 [Example 1-23]	mCherry-positive rate	100.0%
C[C@H]1[C@H](Oc2ccccc2)O[C@@H]2O[C@@]3(C)CC[C@H]4[C@H](C)CC[C@@H]1[C@@]24OO3 [Example 1-25]	mCherry-positive rate	0.0%
C[C@H]1[C@@H](c2ccccc2)O[C@@H]2O[C@@]3(C)CC[C@H]4[C@H](C)CC[C@@H]1[C@@]24OO3 [Example 1-2]	mCherry-positive rate	0.0%
CC(=O)N[C@@H]1O[C@@H]2O[C@@]3(C)CC[C@H]4[C@H](C)CC[C@@H]([C@H]1C)[C@@]24OO3 [Example 1-10]	mCherry-positive rate	99.3%
C[C@H]1[C@@H](F)O[C@@H]2O[C@@]3(C)CC[C@H]4[C@H](C)CC[C@@H]1[C@@]24OO3 [Example 1-1]	mCherry-positive rate	0.0%
C[C@H]1[C@@H](OCC(F)(F)F)O[C@@H]2O[C@@]3(C)CC[C@H]4[C@H](C)CC[C@@H]1[C@@]24OO3 [Example 1-22]	mCherry-positive rate	0.0%

Input line: Please look up its mCherry-positive rate: C[C@H]1[C@H](C(=O)O)O[C@@H]2O[C@@]3(C)CC[C@H]4[C@H](C)CC[C@@H]1[C@@]24OO3 [Example 1-8]
Output line: 29.0%

Input line: Please look up its mCherry-positive rate: C[C@H]1[C@@H](OC2CCCCC2)O[C@@H]2O[C@@]3(C)CC[C@H]4[C@H](C)CC[C@@H]1[C@@]24OO3 [Example 1-20]
Output line: 50.0%

###

Tested on: mouse long-term hematopoietic stem cells
Assay: Reproducibility and concentration dependence test: 1-week culture of sorted Hoxb5-tri-mCherry mouse long-term hematopoietic stem cells, flow cytometry
Type: cell-based
Settings: Table 4; compound 0.3 μM; day 7 of culture; n=2
Description: Mice with insertion of a nucleic acid sequence containing three copies of a gene encoding the fluorescent protein mCherry to the C terminus of the mouse endogenous HoxB5 gene (Hoxb5-tri-mCherry) were used (triple-mCherry Hoxb5 knock-in mice; Non Patent Literature 1). […]
Note to self: values exactly at 300 cell are criterion met. So Viable cell count at or above 300 cell is criterion met, below is criterion not met.

The following compounds have reported results that may help.
sample-smiles	discrete-label
COCCO[C@H]1O[C@@H]2O[C@@]3(C)CC[C@H]4[C@H](C)CC[C@@H]([C@H]1C)[C@@]24OO3	criterion met
C[C@@H]1CC[C@H]2[C@@H](C)C(=O)O[C@@H]3O[C@@]4(C)CC[C@@H]1[C@]32O4	criterion met
C[C@H]1[C@@H](F)O[C@@H]2O[C@@]3(C)CC[C@H]4[C@H](C)CC[C@@H]1[C@@]24OO3	criterion not met
C[C@H]1[C@H](Oc2ccccc2)O[C@@H]2O[C@@]3(C)CC[C@H]4[C@H](C)CC[C@@H]1[C@@]24OO3	criterion not met
CC(=O)O[C@@H]1O[C@@H]2O[C@@]3(C)CC[C@H]4[C@H](C)CC[C@@H]([C@H]1C)[C@@]24OO3	criterion met

Consider now this further compound.
Input line: Reported Viable cell count at or above 300 cell? C[C@H]1[C@H](N2CCOCC2)O[C@@H]2O[C@@]3(C)CC[C@H]4[C@H](C)CC[C@@H]1[C@@]24OO3
Output line: criterion met

###

Reported mCherry-positive rate is given for each of the following molecules.
Tested on: mouse long-term hematopoietic stem cells
Assay: Reproducibility and concentration dependence test: 1-week culture of sorted Hoxb5-tri-mCherry mouse long-term hematopoietic stem cells, flow cytometry
Type: cell-based
Conditions: Table 4; compound 10 μM; day 7 of culture; n=2
// return numeric value only (unit: %, not printed)

Input line: Please look up its mCherry-positive rate: C[C@H]1[C@H](n2cc(-c3ccccc3)nn2)O[C@@H]2O[C@@]3(C)CC[C@H]4[C@H](C)CC[C@@H]1[C@@]24OO3
Output line: 11.4

###

Tested on: mouse long-term hematopoietic stem cells
Experiment: Reproducibility and concentration dependence test: 1-week culture of sorted Hoxb5-tri-mCherry mouse long-term hematopoietic stem cells, flow cytometry
Assay type: cell-based
Details: Table 4; compound 1 μM; day 7 of culture; n=2
Classes based on mCherry-positive rate: low interval (below 20%), middle interval (20% to below 50%), high interval (50% or more)

molecule	discrete-label
C[C@H]1[C@H](N(C)C)O[C@@H]2O[C@@]3(C)CC[C@H]4[C@H](C)CC[C@@H]1[C@@]24OO3	low interval

Consider now this further molecule.
Input line: Which class is correct for the following molecule? C[C@H]1[C@H](c2ccco2)O[C@@H]2O[C@@]3(C)CC[C@H]4[C@H](C)CC[C@@H]1[C@@]24OO3
Output line: high interval

###

System: mouse long-term hematopoietic stem cells
Experiment: Reproducibility and concentration dependence test: 1-week culture of sorted Hoxb5-tri-mCherry mouse long-term hematopoietic stem cells, flow cytometry
Type: cell-based
Conditions: Table 4; compound 10 μM; day 7 of culture; n=2
measured-quantity: KLS-positive rate (%)
// return numeric value only (unit: %, not printed)

Look over these answered cases.
compound	result
C[C@H]1[C@@H](OC2CCCCC2)O[C@@H]2O[C@@]3(C)CC[C@H]4[C@H](C)CC[C@@H]1[C@@]24OO3	0.0
C[C@H]1[C@@H](F)O[C@@H]2O[C@@]3(C)CC[C@H]4[C@H](C)CC[C@@H]1[C@@]24OO3	0.0
CC(=O)N[C@@H]1O[C@@H]2O[C@@]3(C)CC[C@H]4[C@H](C)CC[C@@H]([C@H]1C)[C@@]24OO3	53.1
C[C@H]1[C@H](S(C)(=O)=O)O[C@@H]2O[C@@]3(C)CC[C@H]4[C@H](C)CC[C@@H]1[C@@]24OO3	0.0
CC(=O)O[C@@H]1O[C@@H]2O[C@@]3(C)CC[C@H]4[C@H](C)CC[C@@H]([C@H]1C)[C@@]24OO3	0.0
CC1=CO[C@@H]2O[C@@]3(C)CC[C@H]4[C@H](C)CC[C@@H]1[C@@]24OO3	41.2
COCCO[C@H]1O[C@@H]2O[C@@]3(C)CC[C@H]4[C@H](C)CC[C@@H]([C@H]1C)[C@@]24OO3	42.3
CS[C@H]1O[C@@H]2O[C@@]3(C)CC[C@H]4[C@H](C)CC[C@@H]([C@H]1C)[C@@]24OO3	61.4
C[C@H]1[C@H](N2CCOCC2)O[C@@H]2O[C@@]3(C)CC[C@H]4[C@H](C)CC[C@@H]1[C@@]24OO3	0.0
C[C@H]1[C@H](OC(=O)CCC(=O)O)O[C@@H]2O[C@@]3(C)CC[C@H]4[C@H](C)CC[C@@H]1[C@@]24OO3 [Example 1-32, artesunate, reference compound]	0.0

# context switch: different compound, same KLS-positive rate
Input line: Please look up its KLS-positive rate: C[C@H]1[C@H](CN)O[C@@H]2O[C@@]3(C)CC[C@H]4[C@H](C)CC[C@@H]1[C@@]24OO3
Output line: 49.6

###

Tested on: human hematopoietic stem cells (CD34-positive cells)
Test: Functional test with human cells: colony assay (CFU-GEMM) after culture
Format: cell-based
Settings: compound 10 μM; 1 week culture then 2 weeks MethoCult H4435; no UM171
measured-quantity: Colony count (colony) after culture (CFU-GEMM)
// return numeric value only (unit: colony, not printed)

Look over these answered cases.
compound	tested-system	result
CO[C@H]1O[C@@H]2O[C@@]3(C)CC[C@H]4[C@H](C)CC[C@@H]([C@H]1C)[C@@]24OO3 [Example 1-30, artemether, reference compound]	human hematopoietic stem cells (CD34-positive cells)	0.0
C[C@H]1[C@H](C(N)=O)O[C@@H]2O[C@@]3(C)CC[C@H]4[C@H](C)CC[C@@H]1[C@@]24OO3	human hematopoietic stem cells (CD34-positive cells)	8.8
C[C@H]1[C@H](c2ccco2)O[C@@H]2O[C@@]3(C)CC[C@H]4[C@H](C)CC[C@@H]1[C@@]24OO3	human hematopoietic stem cells (CD34-positive cells)	0.0

# context switch: different compound, same Colony count (colony) after culture (CFU-GEMM)
Input line: Please look up its Colony count (colony) after culture (CFU-GEMM): COCCO[C@H]1O[C@@H]2O[C@@]3(C)CC[C@H]4[C@H](C)CC[C@@H]([C@H]1C)[C@@]24OO3
Output line: 0.0
